# System: K-562 leukemia
# test.description: NCI tumour cell line growth inhibition, 48 h
Listed next: entries and their corresponding TGI.

Previously resolved entries follow.
>  <compound>
CCN(CC)CCC(=O)Nc1cccc2c1C(=O)c1c(c(O)c3ccccc3c1O)C2=O

>  <subject.of.test>
K-562 leukemia

>  <TGI>
13.8 µM

$$$$
>  <compound>
O=c1c2cc(Br)ccc2oc2ccc(Br)cc12

>  <subject.of.test>
K-562 leukemia

>  <TGI>
> 100 µM

$$$$
>  <compound>
CSC(=S)N(C)c1nc(=[N+](C)C)ss1

>  <subject.of.test>
K-562 leukemia

>  <TGI>
> 100 µM

$$$$
>  <compound>
O=C1C(NCCc2cc(Br)c(O)c(Br)c2)=CC(=O)c2ncccc21

>  <subject.of.test>
K-562 leukemia

>  <TGI>
13.8 µM

$$$$
>  <compound>
Cc1ccc(S(=O)(=O)N/N=C2\C(=O)C3CC2C(Cl)C3Cl)cc1 (stereo unspecified)

>  <subject.of.test>
K-562 leukemia

>  <TGI>
> 100 µM

$$$$
>  <compound>
Cc1ccc(-c2c(C#N)c(-c3ccc(N(C)C)cc3)c(C#N)c(=O)n2NS(=O)(=O)c2ccccc2)cc1

>  <subject.of.test>
K-562 leukemia

>  <TGI>
> 100 µM

$$$$
>  <compound>
CC(=O)/C=C1/c2ccccc2N(C(C)=O)C1O (stereo unspecified)

>  <subject.of.test>
K-562 leukemia

>  <TGI>
> 100 µM

$$$$
>  <compound>
CCN(CC)c1ccc(/C=N/NC(=O)c2ccc(Nc3ccnc(C(F)(F)F)c3)cc2)c(O)c1

>  <subject.of.test>
K-562 leukemia

>  <TGI>
3.47 µM

$$$$
>  <compound>
Cc1sc2ncnc(NCCc3ccccc3)c2c1C

>  <subject.of.test>
K-562 leukemia

>  <TGI>
63.1 µM

$$$$
>  <compound>
COc1ccc2c(c1)[nH]c(=O)c1c3cccnc3cn21

>  <subject.of.test>
K-562 leukemia

>  <TGI>
19.8 µM

$$$$

**Query** Field request: TGI | item: O=C(CNC(=O)c1cccc2ccccc12)Nc1ccccc1Oc1cccc(O)c1
**Result** > 25 µM

**Query** Field request: TGI | item: CCc1cc(Cc2cc(CC)c(NC(=O)C3=CC(=O)CC(c4ccc(OC)cc4)O3)c(CC)c2Cl)c(Cl)c(CC)c1NC(=O)C1=CC(=O)CC(c2ccc(OC)cc2)O1 (stereo unspecified)
**Result** > 100 µM

**Query** Field request: TGI | item: COc1ccc2c(c1)c(Cc1c(C)n(C)c3ccc(OC)cc13)c(C)n2C
**Result** > 100 µM

**Query** Field request: TGI | item: Cc1sc2ncnc(Sc3nc4ccccc4[nH]3)c2c1C
**Result** 97.3 µM

**Query** Field request: TGI | item: COc1ccc(/C=C2/C(=O)N(C(=O)c3ccc(Cl)cc3)N=C2C)cc1OC
**Result** > 100 µM

**Query** Field request: TGI | item: CCOC(=O)[C@H]1C[C@@H](C(=O)c2ccccc2)N2N=C(c3ccc(Br)cc3)C=C[C@H]12
**Result** > 100 µM

**Query** Field request: TGI | item: O=C(Nc1ccccc1Cl)c1cnc2ccc(C3CCNCC3)cn12
**Result** > 100 µM

**Query** Field request: TGI | item: O=C1/C(=C/c2cccc([N+](=O)[O-])c2)COc2ccccc21
**Result** > 28.5 µM

----------
# Test system: LOX IMVI melanoma
# test.description: NCI tumour cell line growth inhibition, 48 h
Listed next: entries and their corresponding TGI.
Give the value in µM but do not write µM after it.

>  <compound>
NN/C(=N\S(=O)(=O)c1cc(Cl)c(Oc2ccc([N+](=O)[O-])cc2Cl)c(Cl)c1)Nc1ccc(Cl)cc1

>  <TGI / µM>
45

$$$$
>  <compound>
Clc1ccc(C2=Nc3ccccc3SC(c3ccc(Cl)c(Cl)c3)C2)c(Cl)c1 (stereo not given)

>  <TGI / µM>
21.6

$$$$
>  <compound>
CCN=C1NN=C(c2ccccc2)c2cc(Cl)ccc2N1

>  <TGI / µM>
36.7

$$$$

**Query** Field request: TGI | item: COC(=O)c1c2c(c(C)[n+]([O-])c1C)C(=O)C=C(NCc1ccc(Cl)cc1)C2=O
**Result** 1.6

----------
Listed next: entries and their corresponding TGI.
# Test system: UO-31 renal
# test.description: NCI tumour cell line growth inhibition, 48 h

>  <compound>
CSc1nc(C)cc(Nc2ccc(O)c(CN3CCCCC3)c2)n1

>  <subject.of.test>
UO-31 renal

>  <readout.kind>
TGI

>  <result.value>
> 100 µM

$$$$
>  <compound>
COc1ccccc1NC(=O)C(C#N)=C(SC)SC

>  <subject.of.test>
UO-31 renal

>  <readout.kind>
TGI

>  <result.value>
> 100 µM

$$$$
>  <compound>
CC1(C)OC2C(CO)OC(n3ccc(=O)[nH]c3=O)C2O1 (stereo not given)

>  <subject.of.test>
UO-31 renal

>  <readout.kind>
TGI

>  <result.value>
> 100 µM

$$$$

**Query** Field request: TGI | item: O=C(Nc1ccc(C(F)(F)F)cc1[N+](=O)[O-])C(=O)C(C(=O)c1ccc2ccccc2c1)C1OC(=O)c2ccccc21 (stereo not given)
**Result** 28.8 µM

**Query** Field request: TGI | item: CC(=O)OC1[C@H]2c3cc4c(cc3CN3CCC(C[C@@H]1OC(C)=O)C23)OCO4 (stereo not given in full)
**Result** > 75 µM

**Query** Field request: TGI | item: CCOc1ccc(C2c3[nH]c4ccccc4c3CCN2C(=O)c2cccs2)cc1 (stereo not given)
**Result** > 100 µM

**Query** Field request: TGI | item: CC(C)=CCC/C(C)=C/Cc1cc(/C=C/c2cc(O)c(CC=C(C)C)c(O)c2)cc(O)c1O
**Result** 2.89 µM

**Query** Field request: TGI | item: CCCCCCC(N)(CCCCCC)C(=O)Nn1c(C)ccc1C
**Result** > 100 µM

**Query** Field request: TGI | item: CC(C#N)Nc1ccc(Oc2ccc(C(C)(C)c3ccc(Oc4ccc(NC(C)C#N)cc4)cc3)cc2)cc1 (stereo not given)
**Result** > 100 µM

**Query** Field request: TGI | item: O=C1CCC(c2nc3ccccc3o2)C(=O)N1 (stereo not given)
**Result** > 100 µM

----------
# Tested on: HCT-116 colon
# test.description: NCI tumour cell line growth inhibition, 48 h
readout.kind: TGI (µM)
Give the value in µM but do not write µM after it.

**Query** Field request: TGI | item: Clc1ccc(C2=Nc3ccccc3SC(c3ccc(Cl)c(Cl)c3)C2)c(Cl)c1 (stereo not given)
**Result** 23.4

**Query** Field request: TGI | item: O=C1/C(=C/c2cccc([N+](=O)[O-])c2)CCCc2ccccc21
**Result** 17.2

----------
# Tested on: HOP-62 NSCLC
# test.description: NCI tumour cell line growth inhibition, 48 h
readout.kind: TGI

Previously resolved entries follow.
>  <molecule>
O=C(Oc1ccccc1)c1cc(O)c(O)c(O)c1

>  <subject.of.test>
HOP-62 NSCLC

>  <readout.kind>
TGI

>  <result.value>
70.3 µM

$$$$
>  <molecule>
Cc1ccc(S(=O)(=O)N/N=C2\C(=O)C3CC2C(Cl)C3Cl)cc1 (stereo unspecified)

>  <subject.of.test>
HOP-62 NSCLC

>  <readout.kind>
TGI

>  <result.value>
> 100 µM

$$$$
>  <molecule>
CC[C@@]1(O)C(=O)OCc2c1c(Cl)c1n(c2=O)Cc2cc3ccccc3nc2-1

>  <subject.of.test>
HOP-62 NSCLC

>  <readout.kind>
TGI

>  <result.value>
8.03 µM

$$$$
>  <molecule>
Cc1sc2ncnc(NCCc3ccccc3)c2c1C

>  <subject.of.test>
HOP-62 NSCLC

>  <readout.kind>
TGI

>  <result.value>
33.8 µM

$$$$
>  <molecule>
O=c1nc2n(CCO)c(-c3ccccc3)c(-c3ccccc3)nc-2c(=O)[nH]1

>  <subject.of.test>
HOP-62 NSCLC

>  <readout.kind>
TGI

>  <result.value>
> 100 µM

$$$$

Consider now this further molecule.
**Query** Identify the measured TGI of O=C(CC(=O)Nc1ccc(Cl)cc1)NNCC(=O)Nc1nc(-c2ccccc2)cs1 for HOP-62 NSCLC.
**Result** > 100 µM

----------
# System: HCC-2998 colon
# test.description: NCI tumour cell line growth inhibition, 48 h
Listed next: entries and their corresponding TGI.

Previously resolved entries follow.
>  <molecule>
CC(=O)OC1[C@H]2c3cc4c(cc3CN3CCC(C[C@@H]1OC(C)=O)C23)OCO4 (stereo not given in full)

>  <TGI>
> 75 µM

$$$$
>  <molecule>
CCN(CC)CCC(=O)Nc1cccc2c1C(=O)c1c(c(O)c3ccccc3c1O)C2=O

>  <TGI>
> 100 µM

$$$$
>  <molecule>
COc1ccc(NC2=C(Sc3nc(C)cc(C)n3)C(=O)N(Cc3ccccc3)C2=O)cc1Cl

>  <TGI>
> 160 µM

$$$$
>  <molecule>
COc1ccc(CCN2CCC(C#N)(c3ccc(OC)c(OC)c3)CC2)cc1OC

>  <TGI>
> 100 µM

$$$$

Consider now this further molecule.
**Query** Field request: TGI | item: Fc1ccc(C(OCCN2CCC3CCC(C2)N3CCCc2ccccc2)c2ccc(F)cc2)cc1 (stereo not given)
**Result** 4.05 µM
